The reported numbers originate from PubChem BioAssay.

- run description: S. pombe growth modifiers, basal conditions – strain 972, OD600, 24 h, no modulator, primary screen (AID 1090);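 further: basal condition with compound alone and no growth modifier present; test concentration not given here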
- study conditions: S. pombe 972 growth, higher = more signal, called active from +8 up or from −8 down
Response key: YES means z-score >= -0.08; NO means z-score < -0.08.

Ask | Check this molecule for z-score at or above -0.08: [N-]=[N+]=NCc1ccccc1[C@@H]1OC(c2ccc(OCCCO)cc2)=N[C@]1(CCS(=O)(=O)c1ccccc1)C(=O)N1CCOCC1
Reply | YES

Ask | Check this molecule for z-score at or above -0.08: O=C1[C@H]2C=C(Br)[C@H](C[C@@H]2OCCCCCCO)[C@@]12CO2
Reply | NO

Ask | Check this molecule for z-score at or above -0.08: O=C1C2C=CC(C(O)c3ccc(F)cc3)N(Nc3ccc([N+](=O)[O-])cc3)C2C(=O)N1c1ccccc1 (configuration not stated)
Reply | YES

Ask | Check this molecule for z-score at or above -0.08: COCCCNC(=O)[C@@]1(Cc2ccccc2)N=C(c2ccc(OCCCO)cc2)O[C@H]1c1ccccc1CN=[N+]=[N-]
Reply | YES

Ask | Check this molecule for z-score at or above -0.08: CC(C)[Si](C#CCCCC#N)(O[C@H](c1ccccc1)c1cn(Cc2cccc(Cl)c2)nn1)C(C)C
Reply | NO

Ask | Check this molecule for z-score at or above -0.08: C=CCNC(=O)[C@H]1[C@@H]2C(=O)O[C@@H](c3ccccc3)[C@@H](c3ccccc3)N2[C@@H](c2ccc(O)cc2)[C@]12C(=O)Nc1ccc(C#CCCO)cc12
Reply | YES
